Values were extracted from patent US8461178B2.

target-of-assay: cRaf-Mek1-Erk2 (Homo sapiens, UniProt P04049+P28482+Q02750)
Sequence (P04049 whole entry): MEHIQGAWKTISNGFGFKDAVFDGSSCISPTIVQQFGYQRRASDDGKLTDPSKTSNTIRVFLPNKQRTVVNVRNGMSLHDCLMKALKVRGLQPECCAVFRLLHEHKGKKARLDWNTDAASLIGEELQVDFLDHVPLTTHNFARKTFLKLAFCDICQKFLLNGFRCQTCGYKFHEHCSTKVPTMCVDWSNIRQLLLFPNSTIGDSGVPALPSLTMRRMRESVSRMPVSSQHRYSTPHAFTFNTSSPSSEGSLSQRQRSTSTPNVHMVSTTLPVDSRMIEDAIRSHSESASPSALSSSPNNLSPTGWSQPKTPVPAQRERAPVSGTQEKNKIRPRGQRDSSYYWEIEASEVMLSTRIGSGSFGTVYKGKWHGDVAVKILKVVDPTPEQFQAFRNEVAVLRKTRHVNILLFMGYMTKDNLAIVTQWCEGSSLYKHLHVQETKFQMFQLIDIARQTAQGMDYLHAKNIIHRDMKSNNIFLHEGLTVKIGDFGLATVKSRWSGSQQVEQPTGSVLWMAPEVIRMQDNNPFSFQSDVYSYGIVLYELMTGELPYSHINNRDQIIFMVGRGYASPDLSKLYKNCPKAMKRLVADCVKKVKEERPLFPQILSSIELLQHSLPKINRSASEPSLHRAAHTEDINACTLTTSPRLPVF
Sequence (Q02750 whole entry): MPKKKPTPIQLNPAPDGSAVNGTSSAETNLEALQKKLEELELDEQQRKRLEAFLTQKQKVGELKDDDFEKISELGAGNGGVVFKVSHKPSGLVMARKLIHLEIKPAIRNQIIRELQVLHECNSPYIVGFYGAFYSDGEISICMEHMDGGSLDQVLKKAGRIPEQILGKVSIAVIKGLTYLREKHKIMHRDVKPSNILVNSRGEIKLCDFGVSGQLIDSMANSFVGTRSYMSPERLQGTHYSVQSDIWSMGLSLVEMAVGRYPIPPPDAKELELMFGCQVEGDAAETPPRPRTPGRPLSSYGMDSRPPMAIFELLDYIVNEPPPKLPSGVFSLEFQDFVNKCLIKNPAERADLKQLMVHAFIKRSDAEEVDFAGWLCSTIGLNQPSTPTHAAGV
Sequence (P28482 2-360): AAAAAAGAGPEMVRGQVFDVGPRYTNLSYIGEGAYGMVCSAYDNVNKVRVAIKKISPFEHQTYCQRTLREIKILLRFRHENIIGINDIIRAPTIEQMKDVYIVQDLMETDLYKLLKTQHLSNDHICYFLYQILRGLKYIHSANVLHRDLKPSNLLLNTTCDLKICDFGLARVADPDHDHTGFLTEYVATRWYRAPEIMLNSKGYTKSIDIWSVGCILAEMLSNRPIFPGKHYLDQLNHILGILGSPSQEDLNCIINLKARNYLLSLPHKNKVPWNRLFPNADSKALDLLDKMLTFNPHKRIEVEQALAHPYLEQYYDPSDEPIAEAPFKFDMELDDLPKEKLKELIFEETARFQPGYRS
experimental-context: read-out: IC50 cRaf-Mek-Erk; at 10 μM ATP
pIC50: −log10 of the molar value.
Rule: pIC50 of 5 or more gives Yes; anything lower gives No.

smiles-representation | cat
COc1cc(-c2cnc3c(NC(=O)NC(C)(C)C)ccnc3c2)ccc1O | No
Cn1cc(-c2cnc3c(NC(=O)NC4CCCC4)ccnc3c2)cn1 | Yes
Cn1cc(-c2cnc3ccc(NC(=O)Nc4ccccc4)nc3c2)cn1 | Yes
O=C(Nc1ccnc2cc(-c3ccccc3)cnc12)NC1CC1 | No
CCNC(=O)Nc1ccnc2cc(-c3cc(C)c(O)c(C)c3)cnc12 | No
Cn1cc(-c2cnc3c(NC(=O)NCc4ccccc4)ccnc3c2)cn1 | No
O=C(Nc1ccnc2cc(-c3ccsc3)cnc12)NC1CC1 | Yes
COc1ccc(-c2cnc3ccc(NC(=O)NC(C)(C)C)nc3c2)cc1OC | Yes
Cn1cc(-c2cnc3ccc(NC(=O)NC(C)(C)C)nc3c2)cn1 | Yes
COc1cc(-c2cnc3c(NC(=O)NC4CC4)ccnc3c2)ccc1O | No
Cn1cc(-c2cnc3c(NC(=O)NC4CC(F)(F)C4)ccnc3c2)cn1 | No
CCCCCCNC(=O)Nc1ccnc2cc(-c3cnn(C)c3)cnc12 | No
Cn1cc(-c2cnc3c(NC(=O)NCCc4ccccc4)ccnc3c2)cn1 | No
Cn1cc(-c2cnc3c(NC(=O)Nc4ccccc4)ccnc3c2)cn1 | No
O=C(Nc1ccnc2cc(-c3ccc4[nH]ccc4c3)cnc12)NC1CC1 | No
Cn1cc(-c2cnc3c(NC(=O)NC4CCCCC4)ccnc3c2)cn1 | No
O=C(Nc1ccnc2cc(-c3cnn(CCN4CCOCC4)c3)cnc12)NC1CC1 | Yes
O=C(Nc1ccnc2cc(-c3cn[nH]c3)cnc12)NC1CC1 | Yes
Cn1cc(-c2cnc3c(NC(=O)NCCCCc4ccccc4)ccnc3c2)cn1 | No
Cn1cc(-c2cnc3c(NC(=O)NC4CCC4)ccnc3c2)cn1 | Yes
CCNC(=O)Nc1ccnc2cc(-c3cnn(C)c3)cnc12 | No
CCNC(=O)Nc1ccnc2cc(-c3ccc(O)c(OC)c3)cnc12 | No
Cn1cc(-c2cnc3ccc(NC(=O)NCCc4ccccc4)nc3c2)cn1 | Yes
CC(C)NC(=O)Nc1ccnc2cc(-c3cnn(C)c3)cnc12 | Yes
Cn1cc(-c2cnc3c(NC(=O)NCC(F)(F)F)ccnc3c2)cn1 | No

* * *

target-of-assay: Aurora-B (Homo sapiens)
Construct: in some cases as full-length kinases, in some cases as truncated fragments; purchased Upstate/Millipore #14-835
Sequence (Q96GD4 whole entry, the tested form may be a part): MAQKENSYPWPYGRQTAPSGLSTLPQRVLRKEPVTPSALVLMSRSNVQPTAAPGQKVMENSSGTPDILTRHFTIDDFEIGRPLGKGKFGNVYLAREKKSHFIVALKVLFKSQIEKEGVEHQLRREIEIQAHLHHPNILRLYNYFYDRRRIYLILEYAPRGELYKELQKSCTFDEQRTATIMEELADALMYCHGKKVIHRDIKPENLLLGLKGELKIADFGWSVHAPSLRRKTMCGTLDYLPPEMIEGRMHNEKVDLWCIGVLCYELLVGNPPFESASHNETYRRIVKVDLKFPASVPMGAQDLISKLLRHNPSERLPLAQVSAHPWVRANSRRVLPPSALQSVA
method: Cell-free kinase assay (ALPHA technology), Aurora-B
Assay type: biochemical
experimental-context: at 10 μM ATP; read-out: IC50 Aurora-B
Criterion: IC50 strictly under 100 nM. Met: rule met. Not met: rule not met.

molecule | cat
Cn1cc(-c2cnc3ccc(NC(=O)NC(C)(C)C)nc3c2)cn1 [Compound 26] | rule not met
Cn1cc(-c2cnc3c(NC(=O)NCCCCc4ccccc4)ccnc3c2)cn1 [Compound 21] | rule not met
Cn1cc(-c2cnc3c(NC(=O)NCCc4ccccc4)ccnc3c2)cn1 [Compound 33] | rule met
COc1ccc(-c2cnc3c(NC(=O)NC(C)(C)C)ccnc3c2)cc1OC [Compound 8] | rule not met
Cn1cc(-c2cnc3c(NC(=O)NC4CC4)ccnc3c2)cn1 [Compound 18] | rule met
